# viability per entry
assay: growth suppression of PTEN-deleted HCT116, pilot screen, cell-based, HCT116 clonal line, CellTiter-Glo (AID 824); conditions: 60 h, at 10 µM, hits give low values;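 note: 0% = 20 µM Hyamine control and 100% = vehicle cell control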
Inconclusive results are not listed.
Numbers only; they are read as %.

Recorded viability, per entry:
Exercise: For the molecule "Cn1c(=O)c2c(nc(CN3CCN(Cc4ccccc4)CC3)n2Cc2ccccc2)n(C)c1=O" , what viability is on record?
Solution: 88

Exercise: What value of viability has been reported for the following molecule? "Cc1cccc(N=C(N2CCOCC2)P(=O)(N2CCOCC2)N2CCOCC2)c1"
Solution: 92.6

Exercise: What viability value was documented for this molecule, "Cc1ccsc1-c1nc(CSCC(=O)NCc2ccc3c(c2)OCO3)c(C)o1" ?
Solution: 84

Exercise: # query: viability of entry CCSCCOC(=O)C1=C(C)NC(=O)NC1c1ccccc1 (stereo unspecified)
Solution: 98.1

---
Exercise: For the molecule shown here, "Cc1csc(=N)n1-c1ccc(Cl)cc1" , give the reported viability.
Solution: 80.7

Exercise: What viability value was documented for this molecule, "Cn1c(SCC(=O)Nc2cc(=O)n(C)c(=O)n2C)nnc1C12CC3CC(CC(C3)C1)C2" ?
Solution: 92.7

Sourced from PubChem BioAssay
